# melting point per record follows

Compound | Assay result
O=c1[nH]cnc2c1CCN(Cc1ccccc1)C2 | 199 °C
c1ccc(C2CCN(CCC(c3ccccc3)(c3ccccc3)c3nnn[nH]3)CC2)cc1 | 149 to 157 °C
CCOC(=O)c1c(OC(C)C)nc2cc(OC)c(OC)cc2c1-c1ccc(OC)c(OC)c1 | 142 to 143 °C
COc1ccc2c(c1)CCc1cn[nH]c1-2 | 162 to 164 °C
N#CC1(C#N)C2CC(C3OC32)C1(Cl)Cl (stereo unspecified) | 229 °C
CN(C)CCCOc1ccc(C(=O)NN)cc1F | 109 to 111 °C
COC(=O)COc1cccc2c(CNC(C)=O)coc12 | 139 to 140 °C
CCNC(C)CN1CCc2c(c(=O)oc3c(OC)c(OC)ccc23)C1 (stereo unspecified) | 125 to 127 °C
N#Cc1cc(Br)ccc1CBr | 81 °C
O=C(c1ccc(Cl)cc1)c1ccc2c(c1)C(c1cccc(Cl)c1)SCc1nnnn1-2 (stereo unspecified) | 212 °C

Input line: Please give the measured melting point for this compound: "CNc1nc(NS(=O)(=O)c2ccc(N)cc2)cc(N(C)C)n1"
Output line: > 300 °C

###

This section presents molecules with their documented melting point values.

Molecule | Assay result
O=C(O)C=CC(=O)c1cccc([N+](=O)[O-])c1 | 199 to 201 °C
CC(C)(C)OC(=O)N1CCN(c2ccc3ncc(Br)n3n2)CC1 | 176 to 179 °C
CCOC(=O)c1cnc2c(cnn2-c2ccccc2)c1O | 149 to 150 °C

Shift focus to the following entry.
Input line: Bench note: what melting point did "Cc1scnc1-c1ccc(-c2cc(C(F)(F)F)nn2-c2ccc(S(C)(=O)=O)c(F)c2)cc1" show?
Output line: 170 to 172 °C

###

melting point reference

Recorded results for 5 compounds are shown here.
Compound | melting point
CC1(C)C=Cc2c(ccc3c2OCC2(O)c4ccc(O)cc4OC32)O1 (single isomer, unassigned; (-)) | 95 to 101 °C
O=C(O)c1[nH]c(-c2cccs2)cc1-c1ccc(F)cc1 | 194 to 195 °C
N#Cc1c(O)[nH]c2cccnc12 | > 250 °C
O=C1c2cccc3cc4ccccc4c(c23)C(=O)N1CCO | 211 °C
O=[N+]([O-])c1ccc(N2CCN3CCC2CC3)nc1 | 143 to 146 °C

Input line: Endpoint output: melting point of "COC(=O)CNC(=O)c1ncccc1O" . Value?
Output line: 59 to 61 °C

Input line: // melting point lookup, key: "CC1(C)CCc2c1ccc1c2CCc2cc(O)ccc2-1"
Output line: 152 to 153 °C

Input line: So what does the record say about melting point for "CCOc1cc(C2=NN(Cc3ccc(N)cc3)C(=O)CC2)ccc1OC" ?
Output line: 120 °C

Input line: Need melting point of "O=c1c(Cc2ccccc2)cn(-c2ccc(F)cc2)c2ncccc12" , thanks.
Output line: 208 to 209 °C

Input line: Can you share its melting point? I mean this compound: "CC1(C)CC(=O)C(c2ccc(N)cc2Cl)C(=O)C1"
Output line: 218 to 219 °C

Input line: Fill blank: measured melting point of the compound "CCOC(=O)c1ncn2c3ccccc3c(=O)n(C)c12" is ____.
Output line: 211 to 212 °C

###

Attribute measured: melting point

Molecule | Assay result
Cc1cccc(C)c1NC(=O)c1ccc(S(C)=O)cc1 (stereo unspecified) | 144 to 146 °C

Input line: Data request, read-out melting point, for "COc1cccc(Nn2cnc(C)c2-c2ccccc2)c1"
Output line: 156 to 158 °C

All values here come from a melting point compilation (Tetko et al.; mined from patent text by program, amines drawn as free bases though some values may be those of a salt).
